Catalogue of IC50 values
- target: PI3Kδ (Homo sapiens, UniProt O00329)
- Construct: purchased Merck Millipore
- Sequence (O00329 whole entry): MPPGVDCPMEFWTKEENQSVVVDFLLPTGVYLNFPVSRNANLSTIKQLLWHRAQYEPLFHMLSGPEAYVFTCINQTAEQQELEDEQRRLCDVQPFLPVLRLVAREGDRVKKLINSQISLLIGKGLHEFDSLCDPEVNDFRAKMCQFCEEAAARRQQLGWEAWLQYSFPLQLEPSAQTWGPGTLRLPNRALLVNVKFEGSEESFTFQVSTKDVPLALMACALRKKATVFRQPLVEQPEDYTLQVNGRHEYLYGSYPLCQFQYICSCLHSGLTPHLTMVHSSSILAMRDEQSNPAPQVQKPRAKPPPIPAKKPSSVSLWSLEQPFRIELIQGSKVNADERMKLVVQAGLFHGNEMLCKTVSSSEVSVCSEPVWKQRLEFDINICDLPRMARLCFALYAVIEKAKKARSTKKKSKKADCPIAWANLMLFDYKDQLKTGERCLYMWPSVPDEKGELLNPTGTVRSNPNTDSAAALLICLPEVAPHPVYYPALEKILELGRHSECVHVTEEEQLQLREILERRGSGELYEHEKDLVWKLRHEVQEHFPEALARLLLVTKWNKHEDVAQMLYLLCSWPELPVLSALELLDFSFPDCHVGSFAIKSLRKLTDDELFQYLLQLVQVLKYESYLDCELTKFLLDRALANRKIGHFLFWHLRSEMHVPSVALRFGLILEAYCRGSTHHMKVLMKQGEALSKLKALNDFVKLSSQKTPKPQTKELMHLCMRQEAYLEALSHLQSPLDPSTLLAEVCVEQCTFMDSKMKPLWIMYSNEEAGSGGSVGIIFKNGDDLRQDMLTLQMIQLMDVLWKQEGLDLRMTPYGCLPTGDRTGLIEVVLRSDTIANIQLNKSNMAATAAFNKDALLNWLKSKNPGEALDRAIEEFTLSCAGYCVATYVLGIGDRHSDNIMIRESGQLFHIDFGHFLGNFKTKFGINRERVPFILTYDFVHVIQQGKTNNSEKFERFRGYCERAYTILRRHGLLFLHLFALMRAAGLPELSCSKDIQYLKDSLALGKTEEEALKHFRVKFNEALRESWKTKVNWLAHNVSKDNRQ
- Sequence (P27986 whole entry, further chain): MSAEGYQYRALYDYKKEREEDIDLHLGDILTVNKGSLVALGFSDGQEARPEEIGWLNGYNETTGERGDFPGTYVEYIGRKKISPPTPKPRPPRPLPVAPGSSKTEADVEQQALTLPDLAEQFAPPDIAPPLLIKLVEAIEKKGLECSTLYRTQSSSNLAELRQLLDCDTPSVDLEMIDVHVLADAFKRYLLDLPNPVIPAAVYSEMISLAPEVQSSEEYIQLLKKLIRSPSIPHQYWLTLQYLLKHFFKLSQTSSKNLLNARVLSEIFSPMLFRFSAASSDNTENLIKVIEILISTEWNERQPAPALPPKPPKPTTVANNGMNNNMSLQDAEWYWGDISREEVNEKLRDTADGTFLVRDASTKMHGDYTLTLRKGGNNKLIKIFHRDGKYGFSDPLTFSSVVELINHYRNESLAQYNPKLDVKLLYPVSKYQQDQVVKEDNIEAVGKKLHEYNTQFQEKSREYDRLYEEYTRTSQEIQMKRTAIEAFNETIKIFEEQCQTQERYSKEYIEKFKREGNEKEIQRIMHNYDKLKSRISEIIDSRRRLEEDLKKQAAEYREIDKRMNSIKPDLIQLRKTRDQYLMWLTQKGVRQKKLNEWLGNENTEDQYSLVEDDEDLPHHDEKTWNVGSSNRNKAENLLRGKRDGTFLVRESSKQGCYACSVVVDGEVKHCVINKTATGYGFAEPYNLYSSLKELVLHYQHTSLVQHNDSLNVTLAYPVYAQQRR
- procedure_details: PI3K kinases inhibition in vitro (ADP-Glo), PI3Kδ
- Format: biochemical
endpoint_label: IC50

compound_structure_string=CC(C)(C(N)=O)N1CCN(Cc2cc3nc(-c4cccc5[nH]ccc45)cc(N4CCOCC4)n3n2)CC1 result="< 100 nM"
compound_structure_string=c1cc(-c2cc(N3CCOCC3)n3nc(CN4CCN(C5CCCC5)CC4)cc3n2)c2cc[nH]c2c1 result="< 100 nM"
compound_structure_string=CC(C)(O)C1CCN(Cc2cc3nc(-c4cccc5[nH]ccc45)cc(N4CCOCC4)n3n2)CC1 result="< 100 nM"
compound_structure_string=CCN1CCN(Cc2cc3nc(-c4cccc5[nH]ccc45)cc(N4CCOCC4)n3n2)CC1 result="< 100 nM"
compound_structure_string=O=C(Nc1ccccc1)NC1CCN(Cc2cc3nc(-c4cccc5[nH]ccc45)cc(N4CCOCC4)n3n2)CC1 result="100 to 1000 nM"
compound_structure_string=c1cc(-c2cc(N3CCOCC3)n3nc(CN4C[C@@H]5C[C@H]4CN5C4COC4)cc3n2)c2cc[nH]c2c1 result="< 100 nM"
